target: RelSeq SYNTH (residues 79–385) (Streptococcus dysgalactiae subsp. equisimilis)
Sequence (Q54089 79-385): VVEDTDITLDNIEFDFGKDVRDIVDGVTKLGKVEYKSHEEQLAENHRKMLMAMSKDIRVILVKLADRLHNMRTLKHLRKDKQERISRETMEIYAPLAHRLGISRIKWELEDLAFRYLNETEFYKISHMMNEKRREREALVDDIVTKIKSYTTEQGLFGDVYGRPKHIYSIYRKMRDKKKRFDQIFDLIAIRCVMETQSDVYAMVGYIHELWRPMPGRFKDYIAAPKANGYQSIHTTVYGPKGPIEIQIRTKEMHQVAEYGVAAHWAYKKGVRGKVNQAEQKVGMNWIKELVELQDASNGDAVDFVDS
Below, each entry is listed with its recorded pKd.
Lab note — pKd values are minus log10 of concentrations in M.

Consider the reported pKd for these molecules:
> print(dat)
                  item.smiles  measurement.name  observed.measurement
1      O=C(O)c1cccc2[nH]cnc12               pKd                  2.37
2      O=C(O)c1ccc2cc[nH]c2c1               pKd                  2.02
3      O=C(O)c1cccc2[nH]ccc12               pKd                  2.00
4             Nc1ccccc1C(=O)O               pKd                  1.97
5  CC(C)c1cc(C(=O)O)nc2ncnn12               pKd                  2.08
6          Nc1ccc(F)cc1C(=O)O               pKd                  2.26

// next entry
Give the measured pKd of Nc1cccc(C(=O)O)c1 .
2.01
